Every entry's value here was drawn from ChEMBL document CHEMBL1158846.

Experiment: Cytotoxicity against african green monkey Vero cells
Type: cell-based
Details: chlorocebus sabaeus, read-out: ED50 (the source's name)
A collection of compounds and their measured CC50

{"compound": "CCCCCC(O)C(O)CCC[C@H](O)[C@H]1CC[C@@H]([C@@H]2CC[C@@H]([C@@H](O)CCCCCCCCCCCCC3=C[C@H](C)OC3=O)O2)O1 (stereo not given in full) [SPINENCIN]", "value_unit": "ng/mL", "CC50": 6}
{"compound": "CCCCCCC(O)CCC[C@H](O)[C@@H]1CC[C@@H]([C@@H]2CC[C@H]([C@H](O)CCCCCCCCCCCCC3=C[C@H](C)OC3=O)O2)O1 (stereo not given in full) [CAROLIN A]", "value_unit": "ng/mL", "CC50": 2}
{"compound": "CCCCCC[C@H](O)CCC[C@H](O)[C@H]1CC[C@H]([C@H]2CC[C@H]([C@H](O)CCCCCCCCCCCCC3=C[C@H](C)OC3=O)O2)O1 [SQUAMOCIN]", "value_unit": "ng/mL", "CC50": 10}
{"compound": "CCCCCCC(O)CCC[C@H](O)[C@@H]1CC[C@@H]([C@@H]2CC[C@H]([C@H](O)CCCCCCCCCCC3=C[C@H](C)OC3=O)O2)O1 (stereo not given in full) [CAROLIN C]", "value_unit": "ng/mL", "CC50": 50}
{"compound": "CCCCCC(O)CCCC[C@H](O)[C@@H]1CC[C@@H]([C@@H]2CC[C@H]([C@H](O)CCCCCCCCCCCCC3=C[C@H](C)OC3=O)O2)O1 (stereo not given in full) [CAROLIN B]", "value_unit": "ng/mL", "CC50": 3.7}
